- MEASURED TARGET: NRP1-BD (the b1 domain of NRP1) (Homo sapiens)
- Construct: NRP1-BD (the b1 domain of NRP1); purchased Abcam (Cambridge, MA, USA)
- Sequence (O14786 275-424 limits assumed): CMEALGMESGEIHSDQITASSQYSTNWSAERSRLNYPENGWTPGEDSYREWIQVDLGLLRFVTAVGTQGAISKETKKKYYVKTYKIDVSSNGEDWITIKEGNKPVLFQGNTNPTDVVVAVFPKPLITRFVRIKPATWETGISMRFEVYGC
- ASSAY METHOD TEXT: Microscale thermophoresis (MST) binding to NRP1-BD
- ASSAY CONDITIONS: mean ± SD (n = 3), value in μM
MEASURED METRIC: Kd (µM)
One number for each entry, in µM.

Any idea what Kd was measured for NC(N)=NCCC[C@H](NC(=O)c1sccc1NS(=O)(=O)c1cccc2nsnc12)C(=O)O ?
4.9

###

- System: SARS-CoV-2 pseudovirus
- ASSAY CONDITIONS: pseudovirus, 48 h
Ends that are not written are not given here.
MEASURED METRIC: EC50 (nM)
Answers are plain numbers, in nM.

Use the examples below as a reference point.
{"SUBSTANCE": "Ac-QRNIYLDRHNHEAEDLKYQTALASFRPAKPAR [RN-3]", "UNIT OF MEASURE": "nM", "TEST VALUE": 2870}
{"SUBSTANCE": "Ac-EARTFLDKYNHEAEDLYYQSSLASWGSPRRAR [RN-4]", "UNIT OF MEASURE": "nM", "TEST VALUE": 390}
{"SUBSTANCE": "Ac-ETQVLLDKLNHEAEDLKYQSALASHRVRRPPR [RN-5]", "UNIT OF MEASURE": "nM", "TEST VALUE": 3720}
{"SUBSTANCE": "Ac-EKSTLKDRFNHEAQDLKYQDSLASYRGKRPPR [RN-2]", "UNIT OF MEASURE": "nM", "TEST VALUE": 2370}

May I ask what EC50 has been recorded for Ac-QNKVYIDKYNHEAQDLFYQSALKAHRGNRRAR [RN-1] ?
1980

###

- MEASURED TARGET: SARS-CoV-2 S-RBD (Severe acute respiratory syndrome coronavirus 2)
- ASSAY METHOD TEXT: biochemical
- Type: binding
Ends that are not written are not given here.
Labelling field: enter Y if recorded Kd is less than 70 nM. Enter N if it equals or exceeds that cut-off.

{"SUBSTANCE": "Ac-ETQVLLDKLNHEAEDLKYQSALASHRVRRPPR [RN-5]", "ASSIGNED CATEGORY": "N"}
{"SUBSTANCE": "Ac-EARTFLDKYNHEAEDLYYQSSLASWGSPRRAR [RN-4]", "ASSIGNED CATEGORY": "Y"}
{"SUBSTANCE": "Ac-EKSTLKDRFNHEAQDLKYQDSLASYRGKRPPR [RN-2]", "ASSIGNED CATEGORY": "Y"}
{"SUBSTANCE": "Ac-QRNIYLDRHNHEAEDLKYQTALASFRPAKPAR [RN-3]", "ASSIGNED CATEGORY": "N"}

For the next question, use this substance.
Below 70 nM on Kd? Entry Ac-QNKVYIDKYNHEAQDLFYQSALKAHRGNRRAR [RN-1]
Y

###

- MEASURED TARGET: UniProt:P0DTC2
- ASSAY METHOD TEXT: biochemical
- Type: binding
- ASSAY CONDITIONS: read-out: S-RBD Kd
MEASURED METRIC: pKd
Answers are plain numbers, as −log10 of the molar value.

// query pKd value for entry C[C@@]1(C(=O)O)CC[C@]2(C)CC[C@]3(C)C4=CC(=O)c5c(cc(O)c(O)c5C=O)[C@]4(C)CC[C@@]3(C)[C@@H]2C1 [T-96, demethylzeylasteral]
6.00
